Please go through the items and note down their phosphorylation enrichment.
- System Tested: Fyn (UniProt P06241)
- Sequence (P06241 whole entry, looked up): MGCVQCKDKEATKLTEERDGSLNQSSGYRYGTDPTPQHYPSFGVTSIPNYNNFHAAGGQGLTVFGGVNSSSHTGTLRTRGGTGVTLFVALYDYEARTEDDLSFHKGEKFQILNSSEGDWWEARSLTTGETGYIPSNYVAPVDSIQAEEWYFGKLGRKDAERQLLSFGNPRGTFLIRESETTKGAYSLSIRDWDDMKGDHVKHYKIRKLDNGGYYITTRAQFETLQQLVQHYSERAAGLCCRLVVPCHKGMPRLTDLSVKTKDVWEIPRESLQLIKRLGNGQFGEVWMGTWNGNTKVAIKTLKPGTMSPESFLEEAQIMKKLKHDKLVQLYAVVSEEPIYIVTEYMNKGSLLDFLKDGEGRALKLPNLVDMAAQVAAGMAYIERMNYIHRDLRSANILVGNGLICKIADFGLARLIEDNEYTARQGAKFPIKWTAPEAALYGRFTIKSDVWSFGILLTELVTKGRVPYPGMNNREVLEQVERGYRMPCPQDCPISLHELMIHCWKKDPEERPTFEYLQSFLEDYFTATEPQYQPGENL
- Procedure Text: phosphorylation enrichment, bacterial display (enrichment ratio); higher = better substrate or ligand; peptides without Tyr show the background;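 further: 11-residue human phosphosite peptides and single-mutation variants displayed on the E. coli surface, counted by deep sequencing, each peptide's frequency after selection divided by its frequency in the unselected input library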;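 further: frequency after pTyr selection over input frequency; kinase dosed for 20-30% of maximal phosphorylation in three min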

Item FYVVRYCWLRR [MPZ_Y181] : provide phosphorylation enrichment
0.62

Report phosphorylation enrichment for WIGRKYKKVRF [F8_Y442_R437W]
0.552

Note phosphorylation enrichment for the sequence shown: VLALWYFFLTH [ZDHHC23_Y127_YF]
0.614

Report measured phosphorylation enrichment; entry is MGHVNYGAFIN [GLB1_Y485_R482H_YF]
0.672

Answer with the recorded phosphorylation enrichment of PSNTDYPGPHS [TP63_Y171] only.
0.438

---

- System: c-Abl (mouse)
- Procedure Text: phosphorylation enrichment, bacterial display (enrichment ratio); higher = better substrate or ligand; peptides without Tyr show the background
Quantity Measured: phosphorylation enrichment
Write the number on its own, no unit after it.

Hello, please tell me recorded phosphorylation enrichment for this one: YGLPRYRWLTH [TSPAN12_Y143]
0.512

Give the reported phosphorylation enrichment for this sequence. IGGHAYGDQYR [IDH1_Y135_R132G]
0.386

Please supply the value of reported phosphorylation enrichment for the item FPKARYHWLVL [APTX_Y214_YF]
0.647

# return recorded phosphorylation enrichment for input GSSKIYFLHAD [TLR5_Y108_P112A]
0.579

---

- System Tested: FGFR3 (UniProt P22607)
- Sequence (P22607 whole entry, looked up): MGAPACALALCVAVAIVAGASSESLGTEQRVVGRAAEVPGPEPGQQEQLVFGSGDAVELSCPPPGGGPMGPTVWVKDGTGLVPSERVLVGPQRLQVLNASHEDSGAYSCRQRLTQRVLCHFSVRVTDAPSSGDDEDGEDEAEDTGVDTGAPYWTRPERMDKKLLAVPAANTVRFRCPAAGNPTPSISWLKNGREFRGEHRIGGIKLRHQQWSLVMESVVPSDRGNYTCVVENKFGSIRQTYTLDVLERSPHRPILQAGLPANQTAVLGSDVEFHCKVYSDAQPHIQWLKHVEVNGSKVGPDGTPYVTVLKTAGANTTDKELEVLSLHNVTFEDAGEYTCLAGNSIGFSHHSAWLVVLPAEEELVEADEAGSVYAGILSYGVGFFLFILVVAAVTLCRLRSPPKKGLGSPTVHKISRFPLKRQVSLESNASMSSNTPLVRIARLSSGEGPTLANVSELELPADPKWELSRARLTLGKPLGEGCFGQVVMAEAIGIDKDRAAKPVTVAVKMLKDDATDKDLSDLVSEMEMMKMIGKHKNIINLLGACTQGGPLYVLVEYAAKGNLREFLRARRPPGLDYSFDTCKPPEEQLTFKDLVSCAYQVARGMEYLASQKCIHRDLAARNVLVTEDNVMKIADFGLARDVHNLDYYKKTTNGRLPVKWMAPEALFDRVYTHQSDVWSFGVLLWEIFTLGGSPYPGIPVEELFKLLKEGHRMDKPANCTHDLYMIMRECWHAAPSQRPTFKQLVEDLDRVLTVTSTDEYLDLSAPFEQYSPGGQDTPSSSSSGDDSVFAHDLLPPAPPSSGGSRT
- Procedure Text: phosphorylation enrichment, bacterial display (enrichment ratio); higher = better substrate or ligand; peptides without Tyr show the background
Hi there, I'd appreciate the recorded phosphorylation enrichment for every entry that follows.
Write no unit; give the number alone.

Annotate the sequence AHAGEYGAVAL [HBA1_Y25_E28V] with its measured phosphorylation enrichment.
0.509

For KLYRVYCDMNT [FGB_Y269_P265L] , write its phosphorylation enrichment.
0.693

Return reported phosphorylation enrichment. Input sequence: AVRFIYTIDGS [DCX_Y105_G100A_YF]
0.697

---

I'd be grateful if you could share measured phosphorylation enrichment for these entries.
- Tested on: Fer (mouse)
- Procedure Text: phosphorylation enrichment, bacterial display (enrichment ratio); higher = better substrate or ligand; peptides without Tyr show the background
Respond numerically, and do not add a unit to the figure.

Quote Fer (mouse) phosphorylation enrichment for entry YHIDHYLGKEM [G6PD_Y202_R198H] .
0.478

System Fer (mouse). Read-out phosphorylation enrichment. Item SSFSGYIMMPN [LEF1_Y114_YF] . Report value.
0.401

Report phosphorylation enrichment on Fer (mouse) for this entry: EVTRLYGSVCD [TC2N_Y154_K151T]
0.982

Specify the recorded phosphorylation enrichment for FETVKYINNER [ABCB7_Y345_F346I_YF] , system: Fer (mouse).
0.424

Enter phosphorylation enrichment (test system Fer (mouse)) for GDDLSYGDVPP [IRS1_Y151_E147D]
0.61

Find phosphorylation enrichment for RGRSTCFWPRP [GAGE12J_Y9_Y9C_YF] on Fer (mouse) and write it down.
0.786

Send back Fer (mouse) phosphorylation enrichment of LQFKNYQQLFD [MAN2A1_Y442] only.
0.391

Provide Fer (mouse) phosphorylation enrichment reading for ALAHKCHGGGG [HBB_Y146_Y146C] .
0.458

---

- System Tested: FGFR1 (UniProt P11362)
- Sequence (P11362 whole entry, looked up): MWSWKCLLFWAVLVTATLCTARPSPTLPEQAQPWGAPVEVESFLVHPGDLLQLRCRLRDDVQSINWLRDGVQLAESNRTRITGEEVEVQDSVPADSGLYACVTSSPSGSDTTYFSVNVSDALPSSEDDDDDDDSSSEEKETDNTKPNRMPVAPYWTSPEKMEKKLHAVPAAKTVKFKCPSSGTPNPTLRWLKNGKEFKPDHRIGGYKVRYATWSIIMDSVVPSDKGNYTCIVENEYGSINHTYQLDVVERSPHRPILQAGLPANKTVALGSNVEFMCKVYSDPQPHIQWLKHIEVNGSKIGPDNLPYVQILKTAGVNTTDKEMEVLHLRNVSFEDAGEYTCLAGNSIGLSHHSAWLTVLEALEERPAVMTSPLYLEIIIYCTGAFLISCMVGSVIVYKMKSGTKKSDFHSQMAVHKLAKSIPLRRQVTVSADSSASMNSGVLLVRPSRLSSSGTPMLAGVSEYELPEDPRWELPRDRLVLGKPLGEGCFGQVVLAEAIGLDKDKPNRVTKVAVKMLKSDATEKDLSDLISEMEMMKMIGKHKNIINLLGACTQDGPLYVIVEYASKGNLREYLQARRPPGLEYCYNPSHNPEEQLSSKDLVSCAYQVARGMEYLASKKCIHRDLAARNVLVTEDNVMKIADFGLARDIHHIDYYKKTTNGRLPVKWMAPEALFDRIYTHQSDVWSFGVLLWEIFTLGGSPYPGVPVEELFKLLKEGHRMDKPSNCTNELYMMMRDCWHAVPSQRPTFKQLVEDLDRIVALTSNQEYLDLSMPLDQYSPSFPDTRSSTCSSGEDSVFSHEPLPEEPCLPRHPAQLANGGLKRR
- Procedure Text: phosphorylation enrichment, bacterial display (enrichment ratio); higher = better substrate or ligand; peptides without Tyr show the background
Quantity Measured: phosphorylation enrichment
Provide a numeric answer; units are not to be included.

Please give measured phosphorylation enrichment of the following entry: EVASVYQSYQP [MAVS_Y92]
0.518

Report phosphorylation enrichment for RLRKYYLGKYL [KLB_Y906]
0.584

Entry AGQKDYDRLRP [RAC3_Y64_E62K] needs its phosphorylation enrichment filled in; supply it.
0.462

Provide measured phosphorylation enrichment value, entry: PVDVAYRRGFF [PLEC_Y2967_YF]
0.504

Find the measured phosphorylation enrichment of FPKARYHWLVL [APTX_Y214_YF] and report it.
0.645

Give a short answer stating reported phosphorylation enrichment for AVRVFYRKCPR [EPHB2_Y194] .
0.428

Let me know recorded phosphorylation enrichment for VITDFYVDMKF [MPP4_Y567_YF] , thanks.
1.42

Quick one: give measured phosphorylation enrichment for YNNYGYGSDGF [HNRNPH3_Y161_N163S]
0.673

Provide measured phosphorylation enrichment value, entry: QNTGGYYDLYG [PTPN11_Y62_D61G]
13.8

Give phosphorylation enrichment for the following sequence: YGLPRYRWLTH [TSPAN12_Y143]
0.572

# return recorded phosphorylation enrichment for input EKLQQYIAPGM [EPHB3_Y600]
0.389

Recall and state the measured phosphorylation enrichment for RSLLQYGGSAN [ANK1_Y624] .
0.574

Give phosphorylation enrichment for the following sequence: DMLFQYLKQIE [RPAP3_Y569_YF]
0.531

Return phosphorylation enrichment (reported value) for this sequence: HFMKLYEEKTG [PARP1_Y618]
0.464

# return recorded phosphorylation enrichment for input KDKLPYLFDDP [GPX2_Y125_P126L_YF]
0.472

Dear colleague, please send me the reported phosphorylation enrichment for "ANNEFYFQVCA" when you can.
0.755

Determine from records and report phosphorylation enrichment for VNTMLYEKFTY [TEK_Y1108_T1106M]
0.856

Specify measured phosphorylation enrichment for ADARMCGVLPW [PLP1_Y207_Y207C] .
0.489

Give the reported phosphorylation enrichment for this sequence. DQNVEYKGTVS [FHL1_Y117_W122S]
0.525

Give a short answer stating reported phosphorylation enrichment for FPQARYHWLVL [APTX_Y214_K211Q_YF] .
1.92

Give me measured phosphorylation enrichment, please, for this sequence: MKVPVYETPAG [PGM5_Y358]
0.492

Write down phosphorylation enrichment measured for item KRAAIYNPVIF [RHO_Y301_S297R_YF]
0.492

Query phosphorylation enrichment for NPQKSYFIRLF [WAS_Y83_YF]
0.579

Give the reported value of phosphorylation enrichment for this record: YKRAVYCIIGR [NUP93_Y391]
0.429

Tell us which phosphorylation enrichment value is on record for TAALWYIYLHT [ENG_Y612_S615L]
0.81

Please indicate phosphorylation enrichment recorded for RHLLRYLSWTV [CLCNKB_Y93_S88R]
0.532

For the sequence LVRPPYSFLAL [FOXI1_Y126_S129L_YF] , give its measured phosphorylation enrichment value.
1.07

Identify measured phosphorylation enrichment corresponding to PLDGEYFTHQI [TP53_Y327_L330H]
2.17

Assign phosphorylation enrichment to the following record: YVSSFYHAFSG [ACTN4_Y265]
3.31

Look up and report measured phosphorylation enrichment for this entry: EAIMTYVSSFY [ACTN4_Y260_K255E]
0.459

Consider the sequence ILCTVYAFKMR [GRM3_Y754_T758M] . State its measured phosphorylation enrichment.
0.503

Tell me its phosphorylation enrichment given TRSCKYLLLSM [NF1_Y491_Y489C] as the entry.
0.53

Annotate the sequence GDDLSYGDVPP [IRS1_Y151_E147D] with its measured phosphorylation enrichment.
0.479

Let me know recorded phosphorylation enrichment for MYDKEYYSVHN [MET_Y1234] , thanks.
7.14

Return reported phosphorylation enrichment. Input sequence: RRIHRYRGHLW [VHL_Y112_S111R]
0.43

For IVRSLYKDLED [VHL_Y185_E186K] , write its phosphorylation enrichment.
0.502

Please report phosphorylation enrichment for the following sequence: ASLEAYCKHKY [RXRA_Y403]
0.472

Please give the documented phosphorylation enrichment of DNEALYDICFR [TUBB2B_Y208]
0.618

For RNGDRYFKGIV [DCX_Y64] , write its phosphorylation enrichment.
0.444

Fill in reported phosphorylation enrichment for this entry: LLQKTYNYNVL [SLC4A1_Y553_P548L]
1.23

Return phosphorylation enrichment for the following sequence: ATGMEYLASQK [FGFR2_Y616_R612T]
0.464

Complete the entry with phosphorylation enrichment for SELVCYDARVH [MET_Y971_R970C]
0.547

Given the sequence PSVVAYPKRSQ [MARK3_Y432] , write its reported phosphorylation enrichment.
0.39

Return reported phosphorylation enrichment. Input sequence: FYVVRYCWLRR [MPZ_Y181]
0.595

Please report phosphorylation enrichment for the following sequence: SLDLSYYHTSS [EMD_Y181_P183H]
1.53

# return recorded phosphorylation enrichment for input SLDLSYYPTSS [EMD_Y181]
2.62

Fill in phosphorylation enrichment for record RNYDTYTAGLS [RHBDD1_Y264]
0.602
